# Test system: S. aureus GC1131 (Clinical)
measurement.type: MIC (µg/mL)
API: value field is a number in µg/mL; no unit string.

>  <compound.string>
CC(C)=Cc1nc2ccc3cc4c(c(O)c3c2o1)C(=O)[C@]1(O)C(=O)C(C(N)=O)=C(O)[C@@H](N(C)C)[C@@H]1C4

>  <MIC (µg/mL)>
8

$$$$
>  <compound.string>
CN(C)c1cc2nc(/C=C/c3ccco3)oc2c2c1C[C@H]1C[C@H]3[C@H](N(C)C)C(O)=C(C(N)=O)C(=O)[C@@]3(O)C(O)=C1C2=O

>  <MIC (µg/mL)>
8

$$$$

Asked: Determine its reported MIC: `CN(C)c1cc2nc(-c3nccs3)oc2c2c1C[C@H]1C[C@H]3[C@H](N(C)C)C(O)=C(C(N)=O)C(=O)[C@@]3(O)C(O)=C1C2=O`
Given back: 32

---

Read-out record for S. aureus GC1131 (Clinical): MIC
API: value field is a number in µg/mL; no unit string.

Solved entries:
>  <compound.string>
CN(C)c1cc2nc(-c3cc4ccccc4o3)oc2c2c1C[C@H]1C[C@H]3[C@H](N(C)C)C(O)=C(C(N)=O)C(=O)[C@@]3(O)C(O)=C1C2=O

>  <MIC (µg/mL)>
4

$$$$
>  <compound.string>
CN(C)c1ccc(-c2nc3cc(N(C)C)c4c(c3o2)C(=O)C2=C(O)[C@]3(O)C(=O)C(C(N)=O)=C(O)[C@@H](N(C)C)[C@@H]3C[C@@H]2C4)cc1

>  <MIC (µg/mL)>
8

$$$$
>  <compound.string>
CN(C)c1ccc(-c2nc3ccc4cc5c(c(O)c4c3o2)C(=O)[C@]2(O)C(=O)C(C(N)=O)=C(O)[C@@H](N(C)C)[C@@H]2C5)cc1

>  <MIC (µg/mL)>
2

$$$$
>  <compound.string>
CN(C)c1cc2nc(/C=C/c3ccc(F)cc3)oc2c2c1C[C@H]1C[C@H]3[C@H](N(C)C)C(O)=C(C(N)=O)C(=O)[C@@]3(O)C(O)=C1C2=O

>  <MIC (µg/mL)>
8

$$$$

Asked: Answer with MIC of `CN(C)c1cc2nc(-c3ccc(O)cc3O)oc2c2c1C[C@H]1C[C@H]3[C@H](N(C)C)C(O)=C(C(N)=O)C(=O)[C@@]3(O)C(O)=C1C2=O` measured for S. aureus GC1131 (Clinical).
Given back: 4

Asked: Answer with MIC of `CN(C)c1cc2nc(CCl)oc2c2c1C[C@H]1C[C@H]3[C@H](N(C)C)C(O)=C(C(N)=O)C(=O)[C@@]3(O)C(O)=C1C2=O` measured for S. aureus GC1131 (Clinical).
Given back: 0.5

Asked: Answer with MIC of `CC(=O)OCc1ccc(-c2nc3cc(N(C)C)c4c(c3o2)C(=O)C2=C(O)[C@]3(O)C(=O)C(C(N)=O)=C(O)[C@@H](N(C)C)[C@@H]3C[C@@H]2C4)o1` measured for S. aureus GC1131 (Clinical).
Given back: 64

Asked: Answer with MIC of `CN(C)c1cc2nc(-c3ccsc3)oc2c2c1C[C@H]1C[C@H]3[C@H](N(C)C)C(O)=C(C(N)=O)C(=O)[C@@]3(O)C(O)=C1C2=O` measured for S. aureus GC1131 (Clinical).
Given back: 8

Asked: Answer with MIC of `COc1cccc(/C=C/c2nc3cc(N(C)C)c4c(c3o2)C(=O)C2=C(O)[C@]3(O)C(=O)C(C(N)=O)=C(O)[C@@H](N(C)C)[C@@H]3C[C@@H]2C4)c1` measured for S. aureus GC1131 (Clinical).
Given back: 8

Asked: Answer with MIC of `CN(C)c1cc2nc(C=C(c3ccccc3)c3ccccc3)oc2c2c1C[C@H]1C[C@H]3[C@H](N(C)C)C(O)=C(C(N)=O)C(=O)[C@@]3(O)C(O)=C1C2=O` measured for S. aureus GC1131 (Clinical).
Given back: 16

Asked: Answer with MIC of `CN(C)c1cc2nc(-c3cccnc3)oc2c2c1C[C@H]1C[C@H]3[C@H](N(C)C)C(O)=C(C(N)=O)C(=O)[C@@]3(O)C(O)=C1C2=O` measured for S. aureus GC1131 (Clinical).
Given back: 32

---

Read-out record for E. coli GC2203 (ATCC Control): MIC

Asked: Answer with MIC of `CN(C)c1ccc(-c2nc3ccc4cc5c(c(O)c4c3o2)C(=O)[C@]2(O)C(=O)C(C(N)=O)=C(O)[C@@H](N(C)C)[C@@H]2C5)cc1` measured for E. coli GC2203 (ATCC Control).
Given back: > 64 µg/mL

Asked: Answer with MIC of `CCOc1cc(OCC)c(-c2nc3cc(N(C)C)c4c(c3o2)C(=O)C2=C(O)[C@]3(O)C(=O)C(C(N)=O)=C(O)[C@@H](N(C)C)[C@@H]3C[C@@H]2C4)cc1OCC` measured for E. coli GC2203 (ATCC Control).
Given back: > 64 µg/mL

Asked: Answer with MIC of `CN(C)c1cc2nc(-c3ccncc3)oc2c2c1C[C@H]1C[C@H]3[C@H](N(C)C)C(O)=C(C(N)=O)C(=O)[C@@]3(O)C(O)=C1C2=O` measured for E. coli GC2203 (ATCC Control).
Given back: 64 µg/mL

Asked: Answer with MIC of `Cc1ccc(-c2nc3cc(N(C)C)c4c(c3o2)C(=O)C2=C(O)[C@]3(O)C(=O)C(C(N)=O)=C(O)[C@@H](N(C)C)[C@@H]3C[C@@H]2C4)cc1` measured for E. coli GC2203 (ATCC Control).
Given back: > 64 µg/mL

---

# Test system: E. coli GC4559 (parent GC4560)
# assay.explanation: MIC, broth microdilution (NCCLS)
# Format: cell-based
# experimental.parameters: Escherichia coli, Mueller-Hinton II broth, 18-22 hours at 35° C.
Reported MIC values are given for each entry in this list.

>  <compound.string>
CN(C)c1cc2nc(C(C)(C)C)oc2c2c1C[C@H]1C[C@H]3[C@H](N(C)C)C(O)=C(C(N)=O)C(=O)[C@@]3(O)C(O)=C1C2=O

>  <MIC>
> 64 µg/mL

$$$$
>  <compound.string>
CN(C)c1ccc(-c2nc3cc(N(C)C)c4c(c3o2)C(=O)C2=C(O)[C@]3(O)C(=O)C(C(N)=O)=C(O)[C@@H](N(C)C)[C@@H]3C[C@@H]2C4)cc1

>  <MIC>
> 64 µg/mL

$$$$

Please look at the following compound next.
Asked: Determine its reported MIC: `CN(C)c1cc2nc(-c3ccc(O)cc3O)oc2c2c1C[C@H]1C[C@H]3[C@H](N(C)C)C(O)=C(C(N)=O)C(=O)[C@@]3(O)C(O)=C1C2=O`
Given back: > 64 µg/mL

---

# System: S. aureus GC6467 (tet(M) + (K))
# assay.explanation: MIC, broth microdilution (NCCLS)
# Assay type: cell-based
# experimental.parameters: Staphylococcus aureus
measurement.type: MIC

Solved entries:
>  <compound.string>
CCCCCCOc1ccc(-c2nc3cc(N(C)C)c4c(c3o2)C(=O)C2=C(O)[C@]3(O)C(=O)C(C(N)=O)=C(O)[C@@H](N(C)C)[C@@H]3C[C@@H]2C4)cc1

>  <tested.target>
S. aureus GC6467 (tet(M) + (K))

>  <MIC>
> 64 µg/mL

$$$$
>  <compound.string>
CCCCNCc1nc2cc(N(C)C)c3c(c2o1)C(=O)C1=C(O)[C@]2(O)C(=O)C(C(N)=O)=C(O)[C@@H](N(C)C)[C@@H]2C[C@@H]1C3

>  <tested.target>
S. aureus GC6467 (tet(M) + (K))

>  <MIC>
> 64 µg/mL

$$$$

Please look at the following compound next.
Asked: Determine its reported MIC: `CCCNCc1nc2cc(N(C)C)c3c(c2o1)C(=O)C1=C(O)[C@]2(O)C(=O)C(C(N)=O)=C(O)[C@@H](N(C)C)[C@@H]2C[C@@H]1C3`
Given back: > 64 µg/mL
